target: T1, human chemokine (C-C motif) receptor 8 (CCR8) (human, UniProt P51685 1-355); experiment: flow cytometry blocking, PBMC CCR8+ CD4+ cells; competitor PE-AB14 (its MFI is read)
T1 construct: On human peripheral blood lymphocytes / PBMC (native) or on human CCR8 GFP-transfected Ba/F3 cells; also called hCCR8; human CCR8
T1 sequence (P51685 whole entry): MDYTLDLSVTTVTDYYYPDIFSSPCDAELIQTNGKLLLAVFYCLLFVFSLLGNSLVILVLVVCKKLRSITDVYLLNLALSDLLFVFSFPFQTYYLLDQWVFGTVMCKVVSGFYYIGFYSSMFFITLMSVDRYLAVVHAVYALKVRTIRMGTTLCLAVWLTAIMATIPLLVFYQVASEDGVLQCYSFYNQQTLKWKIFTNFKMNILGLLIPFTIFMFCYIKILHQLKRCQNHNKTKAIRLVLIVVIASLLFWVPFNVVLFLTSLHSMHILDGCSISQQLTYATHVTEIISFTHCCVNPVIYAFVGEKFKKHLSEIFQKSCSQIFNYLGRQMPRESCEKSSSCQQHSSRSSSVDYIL
observation.type: MFI

Query AB10 (antibody, V domains shown, Hybridoma monoclonal; also called antibody 10; clone 10) VH: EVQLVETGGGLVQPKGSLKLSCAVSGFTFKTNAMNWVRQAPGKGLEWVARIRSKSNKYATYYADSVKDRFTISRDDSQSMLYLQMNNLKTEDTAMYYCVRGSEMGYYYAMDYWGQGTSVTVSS VL: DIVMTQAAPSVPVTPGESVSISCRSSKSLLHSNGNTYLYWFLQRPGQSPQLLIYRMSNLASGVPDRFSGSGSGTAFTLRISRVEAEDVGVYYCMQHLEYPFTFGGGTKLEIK yields MFI of 642
